# key: entry, value: MTD
Tested on: L3.6pl cells
Experiment: cells
Format: cell-based
Settings: Table 9
metric.name: MTD

> print(dat)
                                   compound  metric.name   result
1  COc1ccc(C(=O)Nc2ccc(N3CCN(c4cc(Cl)ccc4C)CC3)cc2C(=O)O)c(OC)c1 [drawing 135]          MTD   >20 µM
2            O=C(Nc1ccc(F)cc1C(=O)O)c1ccco1          MTD  >100 µM
3  COc1ccccc1C(=O)Nc1ccc(N2CCN(c3cc(Cl)ccc3C)CC2)cc1C(=O)O [drawing 136]          MTD    >5 µM

* * *

// reported CHO MTD per item
System: CHO cells
Experiment: Cytotoxicity screen in CHO cells
Settings: hamster
metric.name: CHO MTD

> print(dat)
                                   compound  assayed.system  metric.name  result
1  COc1ccccc1C(=O)Nc1ccc(N2CCN(Cc3ccccn3)CC2)cc1C(=O)O       CHO cells      CHO MTD  >20 µM
2  COc1ccccc1C(=O)Nc1ccc(N2CCC(c3ccccc3)CC2)cc1C(=O)O       CHO cells      CHO MTD  >32 µM
3  COc1ccc(C(=O)Nc2ccc(N3CCN(c4ccccc4OC)CC3)cc2C(=O)O)cc1       CHO cells      CHO MTD  >32 µM

* * *

System: CHO cells
Experiment: Cytotoxicity screen in CHO cells
Conditions: Chinese hamster, CHO K1 cells
// reported IC50 at 48 h per item
metric.name: IC50 at 48 h (µM)

> print(dat)
                                    compound   metric.name  unit.symbol  censoring.operator  numeric.readout
 1  CCOc1ccccc1N1CCN(c2ccc(NC(=O)c3ccc(OC)cc3)c(C(=O)O)c2)CC1  IC50 at 48 h           µM                   =               37
 2  COc1ccc(C(=O)Nc2ccc(N3CCN(c4ccccc4Cl)CC3)cc2C(=O)O)cc1  IC50 at 48 h           µM                   =               28
 3  COc1ccc(C(=O)Nc2ccc(N3CCCN(c4ncccn4)CC3)cc2C(=O)O)cc1  IC50 at 48 h           µM                   >               40
 4  COc1ccccc1N1CCN(c2ccc(N3C(=O)CCC3=O)cc2[N+](=O)[O-])CC1  IC50 at 48 h           µM                   =               27
 5  COC(=O)c1cc(N2CCN(c3cc(Cl)ccc3C)CC2)ccc1NC(=O)c1ccccc1OC  IC50 at 48 h           µM                   >               40
 6  COc1ccc(CC(=O)Nc2ccc(N3CCN(c4cc(Cl)ccc4C)CC3)cc2C(=O)O)cc1  IC50 at 48 h           µM                   =               24
 7  Cc1ccc(C(=O)Nc2ccc(N3CCN(c4cc(Cl)ccc4C)CC3)c(C(=O)O)c2)cc1  IC50 at 48 h           µM                   =               12
 8  COc1ccccc1N1CCN(c2ccc(NC(=O)c3ccccc3Cl)c(C(=O)O)c2)CC1  IC50 at 48 h           µM                   =               36
 9  COC(=O)c1cc(N2CCN(c3cc(Cl)ccc3C)CC2)ccc1NC(=O)c1ccc(OC)cc1OC  IC50 at 48 h           µM                   >               40
10  COc1ccc(C(=O)Nc2ccc(N3CCN(c4ccc(C(C)=O)cc4)CC3)cc2C(=O)O)cc1  IC50 at 48 h           µM                   =               20
